half-life for assorted molecules
- test-details: Half-life in rats was determined
- Format: ADME, organism-based
- protocol-conditions: rat, in vivo
test-readout: half-life

{"columns": ["molecule", "value"],
 "data": [
  ["CS(=O)(=O)c1ccc(-c2cc(C(F)(F)F)cnc2N2CCCC(CO)C2)cc1 (configuration not stated)", "< 120 min"],
  ["CC(C)(O)CSc1ncc(C(F)(F)F)cc1-c1ccc(S(C)(=O)=O)cc1", "> 720 min"]
]}

---

Record set of IC50 for target or system Prostaglandin G/H synthase 2 (Homo sapiens, UniProt P35354).
test-readout: IC50 (nM)

{"columns": ["compound", "bound-sign", "value"],
 "data": [
  ["CS(=O)(=O)c1ccc(-c2cc(C(F)(F)F)cnc2OC(C(F)(F)F)C(F)(F)F)cc1", "=", 500],
  ["C[C@H](CO)Sc1ncc(C(F)(F)F)cc1-c1ccc(S(C)(=O)=O)cc1", "=", 140],
  ["CC(C)(O)COc1ncc(C(F)(F)F)cc1-c1ccc(S(C)(=O)=O)cc1", "=", 1000],
  ["CS(=O)(=O)c1ccc(-c2cc(C(F)(F)F)cnc2OCc2ccc(Cl)cc2)cc1", ">", 33000],
  ["CS(=O)(=O)c1ccc(-c2cc(C(F)(F)F)cnc2OCC(F)(F)F)cc1", "=", 500],
  ["CCC(O)(CC)[C@H](C)Oc1ncc(C(F)(F)F)cc1-c1ccc(S(C)(=O)=O)cc1", "=", 4700],
  ["CS(=O)(=O)c1ccc(-c2cc(C(F)(F)F)cnc2N2CCCC(CO)C2)cc1 (centres undefined)", "=", 800],
  ["C[C@H](Oc1ncc(C(F)(F)F)cc1-c1ccc(S(C)(=O)=O)cc1)C(C)(C)O", "=", 460],
  ["CS(=O)(=O)c1ccc(-c2cc(C(F)(F)F)cnc2Oc2ccccc2)cc1", "<", 400]
]}
